# ASSAY TARGET: HLA-B1501 (Homo sapiens, UniProt P01889, A329T/A93T/A95T/C349S/D201E/D98Y/E187L/E204Q/E69M/E70A/K202T/N87E/Q94N/R155S/R180W/S121R/S35A/S48A/V306I/V36M/Y140S/Y91S)
# ASSAY PROTOCOL: Competitive peptide binding assay, CIR-B1501
# CONDITION NOTES: HMy2.CIR-B1501 cells, reference Cy5-[…], class from inhibition at 5 and 15 μM, flow cytometry MFI; read-out: Binding affinity with HLA-B1501
pIC50: −log10 of the molar value. Peptide text beside a SMILES is read from it.
Answer each item with its documented pIC50.

Example cases with answers are listed next.
MOLECULE	pIC50
CC(C)C[C@H](NC(=O)[C@H](CCC(N)=O)NC(=O)[C@@H](NC(=O)[C@H](CS)NC(=O)[C@H](Cc1ccccc1)NC(=O)[C@H](CO)NC(=O)CNC(=O)[C@H](Cc1ccc(O)cc1)NC(=O)[C@H](CCC(N)=O)NC(=O)[C@@H](N)CC(C)C)[C@@H](C)O)C(=O)O [Epitope Y88] (H-LQYGSFCTQL-OH; N-terminus and C-terminus assumed)	< 4.82
C[C@H](NC(=O)[C@H](CO)NC(=O)[C@H](CO)NC(=O)[C@@H](N)Cc1ccc(O)cc1)C(=O)N[C@@H](CC(N)=O)C(=O)N[C@@H](CC(N)=O)C(=O)N[C@@H](CS)C(=O)N[C@H](C(=O)N[C@@H](Cc1ccccc1)C(=O)O)[C@@H](C)O [Epitope Y247] (H-YSSANNCTF-OH; N-terminus and C-terminus assumed)	< 4.82
CC[C@H](C)[C@H](NC(=O)[C@@H](NC(=O)[C@H](CC(C)C)NC(=O)[C@H](CCC(=O)O)NC(=O)[C@H](CO)NC(=O)[C@H](CCC(=O)O)NC(=O)[C@@H](N)CC(C)C)C(C)C)C(=O)NCC(=O)N[C@@H](C)C(=O)N[C@H](C(=O)O)C(C)C [Epitope Y211] (H-LESELVIGAV-OH; N-terminus and C-terminus assumed)	4.82 to 5.30
CC(C)C[C@H](NC(=O)[C@H](CC(C)C)NC(=O)[C@H](CC(C)C)NC(=O)[C@H](C)NC(=O)[C@H](CC(C)C)NC(=O)[C@H](C)NC(=O)[C@H](C)NC(=O)[C@H](CC(=O)O)NC(=O)CN)C(=O)O [Epitope Y65] (H-GDAALALLL-OH; N-terminus and C-terminus assumed)	4.82 to 5.30
CC(C)C[C@H](NC(=O)[C@H](CC(C)C)NC(=O)[C@H](C)NC(=O)[C@H](CCC(N)=O)NC(=O)[C@H](CCCNC(=N)N)NC(=O)[C@@H](NC(=O)[C@H](CCCNC(=N)N)NC(=O)[C@H](CCC(=O)O)NC(=O)CN)C(C)C)C(=O)O [Epitope Y202] (H-GERVRQALL-OH; N-terminus and C-terminus assumed)	< 4.82

Query molecule follows.
Returns the measured pIC50 for the input molecule. Input: CC[C@H](C)[C@H](NC(=O)[C@H](CC(N)=O)NC(=O)[C@@H](NC(=O)[C@H](CCC(=O)O)NC(=O)[C@@H]1CCCN1C(=O)[C@H](CC(N)=O)NC(=O)[C@H](Cc1ccccc1)NC(=O)[C@H](CO)NC(=O)[C@@H](N)Cc1c[nH]c2ccccc12)[C@@H](C)O)C(=O)O [Epitope Y297] (H-WSFNPETNI-OH; N-terminus and C-terminus assumed)
> 5.30

All values here come from paper PMC12133982.
